- target: human Lck enzyme (Homo sapiens, UniProt P06239)
- Construct: purchased Carna Biosciences, Inc. 08-170
- Sequence (P06239 whole entry): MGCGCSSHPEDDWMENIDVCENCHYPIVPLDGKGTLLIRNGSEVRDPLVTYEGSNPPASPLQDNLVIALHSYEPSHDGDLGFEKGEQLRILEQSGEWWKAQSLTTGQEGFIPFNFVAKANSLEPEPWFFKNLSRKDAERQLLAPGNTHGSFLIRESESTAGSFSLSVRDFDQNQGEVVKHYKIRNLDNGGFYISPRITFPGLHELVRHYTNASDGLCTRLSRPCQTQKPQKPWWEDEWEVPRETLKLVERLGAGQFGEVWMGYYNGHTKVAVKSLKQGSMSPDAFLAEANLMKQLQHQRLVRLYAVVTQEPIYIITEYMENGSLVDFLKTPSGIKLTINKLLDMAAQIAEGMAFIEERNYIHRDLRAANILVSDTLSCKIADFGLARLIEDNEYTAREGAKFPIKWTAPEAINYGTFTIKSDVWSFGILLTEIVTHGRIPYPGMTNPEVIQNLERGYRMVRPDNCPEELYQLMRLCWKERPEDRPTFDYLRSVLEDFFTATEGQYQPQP
- experiment: Lck enzyme inhibitory activity (time-resolved fluorometry, biotinylated peptide phosphorylation)
- Format: biochemical
- experimentalConditions: read-out: LCK_IC50
pIC50: −log10 of the molar value.
Answer N if pIC50 is under 8, and Y if it is 8 or more.

{"smilesData": "Cc1cc(Oc2c(F)cccc2F)ncc1-n1ncc(C(=O)c2cc3cc(OC4CCN(C5CS(=O)(=O)C5)CC4)c(-c4ccccc4Cl)cc3[nH]2)c1N", "assignedClass": "N"}
{"smilesData": "Cc1cc(Oc2c(F)cccc2F)ncc1-n1ncc(C(=O)c2cc3cc(OCC(F)F)c(NS(=O)(=O)c4ccccc4Cl)cc3[nH]2)c1N", "assignedClass": "N"}
{"smilesData": "Cc1cc(Oc2ccccc2F)ccc1-n1ncc(C(=O)c2cc3cc(OCC(F)F)c(N4CCC(O)CC4)cc3[nH]2)c1N", "assignedClass": "Y"}
{"smilesData": "Cc1cc(Oc2ccccc2F)ccc1-n1ncc(C(=O)c2cc3cc(F)c(N4CCCC4=O)cc3[nH]2)c1N", "assignedClass": "Y"}
{"smilesData": "Cc1cc(-n2ncc(C(=O)c3cc4cc(OC5CCN(C6CCCC6)CC5)c(-c5ccccc5Cl)cc4[nH]3)c2N)ccc1Oc1ccccc1F", "assignedClass": "N"}
{"smilesData": "Cc1cc(-n2ncc(C(=O)c3cc4cc(OC5CCN(C(C)C)CC5)c(Cl)cc4[nH]3)c2N)ccc1Oc1ccccc1F", "assignedClass": "N"}
{"smilesData": "Cc1cc(-n2ncc(C(=O)c3cc4cc(OC5CCN(C(C)C)CC5)c(C5CCOCC5)cc4[nH]3)c2N)ccc1Oc1ccccc1F", "assignedClass": "N"}
{"smilesData": "Cc1cc(Oc2ccccc2F)ccc1-n1ncc(C(=O)c2cc3cc(OC4CCN(C(C)C)CC4)c(N4CCN(S(C)(=O)=O)CC4)cc3[nH]2)c1N", "assignedClass": "Y"}

###

- target: human Src enzyme (Homo sapiens, UniProt P12931)
- Construct: purchased Carna Biosciences, Inc. 08-173
- Sequence (P12931 whole entry): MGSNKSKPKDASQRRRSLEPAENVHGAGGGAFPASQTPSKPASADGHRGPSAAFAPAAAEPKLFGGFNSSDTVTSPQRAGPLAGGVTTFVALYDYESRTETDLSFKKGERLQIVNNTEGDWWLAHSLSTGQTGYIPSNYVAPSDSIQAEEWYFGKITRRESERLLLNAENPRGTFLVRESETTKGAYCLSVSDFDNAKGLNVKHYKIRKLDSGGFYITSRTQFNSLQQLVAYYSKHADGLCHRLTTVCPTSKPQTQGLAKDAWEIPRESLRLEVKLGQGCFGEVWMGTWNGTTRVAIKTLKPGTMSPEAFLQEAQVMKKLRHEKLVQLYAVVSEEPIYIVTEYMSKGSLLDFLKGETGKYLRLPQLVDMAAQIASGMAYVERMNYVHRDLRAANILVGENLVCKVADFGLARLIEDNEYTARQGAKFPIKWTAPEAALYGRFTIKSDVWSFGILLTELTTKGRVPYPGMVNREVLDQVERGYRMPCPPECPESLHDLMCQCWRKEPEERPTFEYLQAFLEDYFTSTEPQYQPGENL
- experiment: Src enzyme inhibitory activity (time-resolved fluorometry, biotinylated peptide phosphorylation)
- Format: biochemical
- experimentalConditions: read-out: SRC_IC50
Please assign Not satisfied whenever IC50 is at or above 40 nM, and Satisfied whenever it is below.

{"smilesData": "Cc1cc(Oc2ccccc2F)ccc1-n1ncc(C(=O)c2cc3cc(F)c(N4C(=O)C(C)(C)NC4=S)cc3[nH]2)c1N", "assignedClass": "Not satisfied"}
{"smilesData": "Cc1cc2cc(C(=O)c3cnn(-c4ccc(Oc5ncccc5Cl)cc4Cl)c3N)[nH]c2cc1NS(=O)(=O)N1CCOCC1", "assignedClass": "Not satisfied"}
{"smilesData": "Cc1cc(Oc2c(F)cccc2F)ncc1-n1ncc(C(=O)c2cc3cc(OC4CCN(C(C)C)CC4)c(C4CCOCC4)cc3[nH]2)c1N", "assignedClass": "Satisfied"}
{"smilesData": "Cc1cc(Oc2ccccc2F)ccc1-n1ncc(C(=O)c2cc3cc(F)c(N4C(=O)NC5(CCC5)C4=O)cc3[nH]2)c1N", "assignedClass": "Satisfied"}
{"smilesData": "Cc1cc(Oc2ccccc2F)ccc1-n1ncc(C(=O)c2cc3cc(OCC(F)F)c(NS(=O)(=O)C4CCOCC4)cc3[nH]2)c1N", "assignedClass": "Satisfied"}
{"smilesData": "Cc1cc(-n2ncc(C(=O)c3cc4cc(OC5CCN(C(C)C)CC5)c(F)cc4[nH]3)c2N)ccc1Oc1ccccc1F", "assignedClass": "Not satisfied"}
{"smilesData": "Cc1cc(Oc2c(F)cccc2F)ncc1-n1ncc(C(=O)c2cc3cc(OC4CCN(C5CS(=O)(=O)C5)CC4)c(-c4ccccc4C(F)(F)F)cc3[nH]2)c1N", "assignedClass": "Not satisfied"}
{"smilesData": "Cc1cc2cc(C(=O)c3cnn(-c4ccc(Oc5ccccc5F)cc4C)c3N)[nH]c2cc1N1CCC(N2CCOCC2)CC1", "assignedClass": "Not satisfied"}
{"smilesData": "Cc1cc(-n2ncc(C(=O)c3cc4cc(OCC(F)F)c(-c5cnn(C)c5)cc4[nH]3)c2N)ccc1Oc1ccccc1F", "assignedClass": "Not satisfied"}
{"smilesData": "Cc1cc(Oc2ccccc2F)ccc1-n1ncc(C(=O)c2cc3cc(F)c(N4CCCC4=O)cc3[nH]2)c1N", "assignedClass": "Satisfied"}
{"smilesData": "CC(C)N1CCC(c2cc3cc(C(=O)c4cnn(-c5ccc(Oc6ccccc6F)cc5)c4N)[nH]c3cc2F)CC1", "assignedClass": "Satisfied"}
{"smilesData": "Cc1cc(Oc2ccccc2F)ncc1-n1ncc(C(=O)c2cc3cc(F)c(NS(=O)(=O)C4CCOCC4)cc3[nH]2)c1N", "assignedClass": "Not satisfied"}
{"smilesData": "CCOc1cc2cc(C(=O)c3cnn(-c4ccc(Oc5ccccc5F)cc4C)c3N)[nH]c2cc1C1CCN(S(=O)(=O)C2CC2)CC1", "assignedClass": "Not satisfied"}

###

- target: human Yes1 enzyme (Homo sapiens)
- Construct: made in house
- Sequence (P07947 whole entry): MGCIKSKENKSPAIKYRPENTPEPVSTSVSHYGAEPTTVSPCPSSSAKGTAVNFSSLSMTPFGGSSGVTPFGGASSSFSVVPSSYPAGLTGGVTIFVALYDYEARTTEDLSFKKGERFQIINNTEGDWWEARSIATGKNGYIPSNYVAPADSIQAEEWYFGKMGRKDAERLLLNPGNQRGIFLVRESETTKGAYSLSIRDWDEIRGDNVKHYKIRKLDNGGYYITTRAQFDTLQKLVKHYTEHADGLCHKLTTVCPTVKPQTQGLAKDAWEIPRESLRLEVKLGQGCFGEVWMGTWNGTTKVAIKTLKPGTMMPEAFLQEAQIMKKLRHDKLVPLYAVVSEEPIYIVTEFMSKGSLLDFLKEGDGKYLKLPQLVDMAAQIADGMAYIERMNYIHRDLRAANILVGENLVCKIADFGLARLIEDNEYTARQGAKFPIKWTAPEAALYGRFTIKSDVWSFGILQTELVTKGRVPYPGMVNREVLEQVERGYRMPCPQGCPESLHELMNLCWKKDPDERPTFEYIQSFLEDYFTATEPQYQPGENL
- experiment: Yes1 enzyme inhibitory activity (time-resolved fluorometry, biotinylated peptide phosphorylation)
- Type: biochemical
- experimentalConditions: read-out: YES_IC50
Please assign FALSE whenever IC50 is at or above 4 nM, and TRUE whenever it is below.

{"smilesData": "CC(C)N1CCC(c2cc3[nH]c(C(=O)c4cnn(-c5ccc(Oc6cccc(Cl)c6)cc5)c4N)cc3cc2F)CC1", "target": "human Yes1 enzyme (Homo sapiens)", "assignedClass": "TRUE"}
{"smilesData": "CCOc1cc2cc(C(=O)c3cnn(-c4ccc(Oc5ccccc5F)cc4C)c3N)[nH]c2cc1C1CCN(S(=O)(=O)C2CC2)CC1", "target": "human Yes1 enzyme (Homo sapiens)", "assignedClass": "FALSE"}
{"smilesData": "Cc1cc(-n2ncc(C(=O)c3cc4cc(C)c(C5CCN(C(C)C)CC5)cc4[nH]3)c2N)ccc1Oc1ccccc1F", "target": "human Yes1 enzyme (Homo sapiens)", "assignedClass": "TRUE"}
{"smilesData": "Nc1c(C(=O)c2cc3cc(F)c(NS(=O)(=O)CCCF)cc3[nH]2)cnn1-c1c(F)cc(Oc2cccc(F)c2F)cc1F", "target": "human Yes1 enzyme (Homo sapiens)", "assignedClass": "TRUE"}
{"smilesData": "Nc1c(C(=O)c2cc3cc(F)c(NS(=O)(=O)C4CC4)cc3[nH]2)cnn1-c1c(Cl)cc(Oc2ccccc2F)cc1Cl", "target": "human Yes1 enzyme (Homo sapiens)", "assignedClass": "FALSE"}
{"smilesData": "Cc1cc(-n2ncc(C(=O)c3cc4cc(OC5CCN(C(C)C)CC5)c(Br)cc4[nH]3)c2N)c(F)cc1Oc1ccccc1F", "target": "human Yes1 enzyme (Homo sapiens)", "assignedClass": "FALSE"}

###

- target: human Src enzyme (Homo sapiens, UniProt P12931)
- Construct: purchased Carna Biosciences, Inc. 08-173
- experiment: Src enzyme inhibitory activity (time-resolved fluorometry, biotinylated peptide phosphorylation)
- Assay type: biochemical
- experimentalConditions: biotinylated peptide phosphorylation, read-out: SRC_IC50
Please assign no (0) whenever IC50 is at or above 60 nM, and yes (1) whenever it is below.

{"smilesData": "CC(C)N1CCC(c2cc3cc(C(=O)c4cnn(-c5ccc(Oc6cccc(F)c6F)cc5F)c4N)[nH]c3cc2F)CC1", "target": "human Src enzyme (Homo sapiens, UniProt P12931)", "assignedClass": "yes (1)"}
{"smilesData": "CCN(CC)C(=O)CS(=O)(=O)Nc1cc2[nH]c(C(=O)c3cnn(-c4cnc(Oc5ccccc5F)cc4C)c3N)cc2cc1F", "target": "human Src enzyme (Homo sapiens, UniProt P12931)", "assignedClass": "no (0)"}
{"smilesData": "Cc1cc(Oc2ccccc2F)ncc1-n1ncc(C(=O)c2cc3cc(N4CCOCC4)c(NS(=O)(=O)N4CCOCC4)cc3[nH]2)c1N", "target": "human Src enzyme (Homo sapiens, UniProt P12931)", "assignedClass": "no (0)"}
{"smilesData": "CC(C)N1CCC(c2cc3cc(C(=O)c4cnn(-c5ccc(Oc6cccc(F)c6F)cc5)c4N)[nH]c3cc2F)CC1", "target": "human Src enzyme (Homo sapiens, UniProt P12931)", "assignedClass": "yes (1)"}
{"smilesData": "Cc1cc2cc(C(=O)c3cnn(-c4ccc(Oc5ccccc5F)cc4C)c3N)[nH]c2cc1N1C(=O)N[C@@H](CO)C1=O", "target": "human Src enzyme (Homo sapiens, UniProt P12931)", "assignedClass": "yes (1)"}
{"smilesData": "Cc1cc(Oc2ccccc2F)ccc1-n1ncc(C(=O)c2cc3cc(F)c(NS(=O)(=O)c4cncc(Cl)c4)cc3[nH]2)c1N", "target": "human Src enzyme (Homo sapiens, UniProt P12931)", "assignedClass": "no (0)"}
{"smilesData": "Cc1cc2[nH]c(C(=O)c3cnn(-c4cnc(Oc5ccccc5F)cc4C)c3N)cc2cc1NS(C)(=O)=O", "target": "human Src enzyme (Homo sapiens, UniProt P12931)", "assignedClass": "yes (1)"}
{"smilesData": "COc1cc2cc(C(=O)c3cnn(-c4c(C)cc(Oc5ccccc5F)cc4F)c3N)[nH]c2cc1NS(=O)(=O)CC(=O)N1CCOCC1", "target": "human Src enzyme (Homo sapiens, UniProt P12931)", "assignedClass": "yes (1)"}
{"smilesData": "Cc1cc(Oc2ccccc2F)ncc1-n1ncc(C(=O)c2cc3cc(OCC(F)F)c(N4CCCC4=O)cc3[nH]2)c1N", "target": "human Src enzyme (Homo sapiens, UniProt P12931)", "assignedClass": "yes (1)"}
{"smilesData": "Cc1cc(Oc2cccc(Cl)c2)ncc1-n1ncc(C(=O)c2cc3cc(F)c(NS(=O)(=O)C4CC4)cc3[nH]2)c1N", "target": "human Src enzyme (Homo sapiens, UniProt P12931)", "assignedClass": "no (0)"}
{"smilesData": "Cc1cc2cc(C(=O)c3cnn(-c4cnc(Oc5c(F)cccc5Cl)cc4C)c3N)[nH]c2cc1NS(C)(=O)=O", "target": "human Src enzyme (Homo sapiens, UniProt P12931)", "assignedClass": "no (0)"}
{"smilesData": "COc1cc2cc(C(=O)c3cnn(-c4cnc(Oc5ccccc5F)cc4C)c3N)[nH]c2cc1NS(=O)(=O)CC(=O)NC(C)C", "target": "human Src enzyme (Homo sapiens, UniProt P12931)", "assignedClass": "yes (1)"}
{"smilesData": "Cc1cc(Oc2c(F)cccc2F)ncc1-n1ncc(C(=O)c2cc3cc(OCC(F)F)c(NS(=O)(=O)CCC(F)F)cc3[nH]2)c1N", "target": "human Src enzyme (Homo sapiens, UniProt P12931)", "assignedClass": "no (0)"}
{"smilesData": "Cc1cc(Oc2ccccc2F)cc(F)c1-n1ncc(C(=O)c2cc3cc(OC(F)F)c(NC4CCN(S(C)(=O)=O)CC4)cc3[nH]2)c1N", "target": "human Src enzyme (Homo sapiens, UniProt P12931)", "assignedClass": "no (0)"}
{"smilesData": "Cc1cc2cc(C(=O)c3cnn(-c4ccc(Oc5ccccc5F)cc4C)c3N)[nH]c2cc1NS(=O)(=O)c1cncc(F)c1", "target": "human Src enzyme (Homo sapiens, UniProt P12931)", "assignedClass": "no (0)"}
{"smilesData": "Cc1cc(Oc2ccccc2Cl)cc(F)c1-n1ncc(C(=O)c2cc3cc(NS(C)(=O)=O)c(F)cc3[nH]2)c1N", "target": "human Src enzyme (Homo sapiens, UniProt P12931)", "assignedClass": "yes (1)"}
{"smilesData": "Cc1cc(Oc2c(F)cccc2F)ncc1-n1ncc(C(=O)c2cc3cc(F)c(N(C4CCOCC4)S(C)(=O)=O)cc3[nH]2)c1N", "target": "human Src enzyme (Homo sapiens, UniProt P12931)", "assignedClass": "yes (1)"}
{"smilesData": "Cc1cc(Oc2cccc(F)c2F)ccc1-n1ncc(C(=O)c2cc3cc(F)c(NS(N)(=O)=O)cc3[nH]2)c1N", "target": "human Src enzyme (Homo sapiens, UniProt P12931)", "assignedClass": "yes (1)"}
{"smilesData": "Cc1ccccc1Oc1cc(C)c(-n2ncc(C(=O)c3cc4cc(F)c(NS(=O)(=O)CCCF)cc4[nH]3)c2N)cn1", "target": "human Src enzyme (Homo sapiens, UniProt P12931)", "assignedClass": "yes (1)"}
{"smilesData": "COc1cc2cc(C(=O)c3cnn(-c4ccc(Oc5cccc(F)c5F)cc4C)c3N)[nH]c2cc1NS(C)(=O)=O", "target": "human Src enzyme (Homo sapiens, UniProt P12931)", "assignedClass": "no (0)"}
{"smilesData": "Cc1cc(Oc2ccccc2F)ncc1-n1ncc(C(=O)c2cc3cc(OC(F)F)c(N4CCC(N5CCOCC5)CC4)cc3[nH]2)c1N", "target": "human Src enzyme (Homo sapiens, UniProt P12931)", "assignedClass": "yes (1)"}
{"smilesData": "CC(=O)N1CCC(c2cc3[nH]c(C(=O)c4cnn(-c5ccc(Oc6ccccc6F)cc5C)c4N)cc3cc2OCC(F)F)CC1", "target": "human Src enzyme (Homo sapiens, UniProt P12931)", "assignedClass": "yes (1)"}
{"smilesData": "Cc1cccc(S(=O)(=O)Nc2cc3[nH]c(C(=O)c4cnn(-c5cnc(Oc6c(F)cccc6F)cc5C)c4N)cc3cc2OCC(F)F)n1", "target": "human Src enzyme (Homo sapiens, UniProt P12931)", "assignedClass": "no (0)"}
{"smilesData": "Cc1cc(Oc2ccccc2F)ccc1-n1ncc(C(=O)c2cc3cc(F)c(NS(N)(=O)=O)cc3[nH]2)c1N", "target": "human Src enzyme (Homo sapiens, UniProt P12931)", "assignedClass": "yes (1)"}
